Experiment: Cmax in rat at 2 mg/kg, iv and 4 mg/kg, po
Type: ADME, organism-based
Details: in vivo

- Molecule: "N#CCN(CC(=O)N1CCCC(c2ccccc2)C1CN1CCCC1)c1ccc(Cl)c(Cl)c1 (racemic)"
  Cmax, ng/mL: 120
- Molecule: "CN(CC(=O)N1CCCC(c2ccccc2)C1CN1CCCC1)c1ccc(Cl)c(Cl)c1 (racemic)"
  Cmax, ng/mL: 100
- Molecule: "O=C(Cn1c(=O)sc2ccc(Cl)cc21)N1CCCC(c2ccccc2)C1CN1CCOCC1 (racemic)"
  Cmax, ng/mL: 160
- Molecule: "COCCN(CC(=O)N1CCCC(c2ccccc2)C1CN1CCCC1)c1ccc(Cl)c(Cl)c1 (stereo not given)"
  Cmax, ng/mL: 95
- Molecule: "N#CCN(CC(=O)N1CCCC(c2ccccc2)C1CN1CCOCC1)c1ccc(Cl)c(Cl)c1 (racemic)"
  Cmax, ng/mL: 370

---

Record: IC50 reported on Cytochrome P450 3A4 (Homo sapiens, UniProt P08684).
Sequence (P08684 whole entry): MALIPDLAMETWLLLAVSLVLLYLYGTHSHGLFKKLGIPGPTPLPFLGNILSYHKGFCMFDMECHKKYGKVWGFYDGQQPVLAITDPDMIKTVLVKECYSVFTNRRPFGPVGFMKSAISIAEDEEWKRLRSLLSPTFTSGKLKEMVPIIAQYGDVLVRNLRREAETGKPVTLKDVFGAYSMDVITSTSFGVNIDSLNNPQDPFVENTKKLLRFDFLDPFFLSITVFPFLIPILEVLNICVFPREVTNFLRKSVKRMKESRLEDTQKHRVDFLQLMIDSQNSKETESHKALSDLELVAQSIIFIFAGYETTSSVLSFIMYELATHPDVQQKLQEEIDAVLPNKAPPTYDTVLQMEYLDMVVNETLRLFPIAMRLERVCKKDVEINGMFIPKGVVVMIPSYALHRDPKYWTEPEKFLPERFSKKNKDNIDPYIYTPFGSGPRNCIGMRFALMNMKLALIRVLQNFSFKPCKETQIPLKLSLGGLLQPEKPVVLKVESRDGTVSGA
Measured attribute: IC50 (nM)

- Compound: "O=C(Cn1c(=O)sc2ccc(Cl)cc21)N1CCCC(c2ccccc2)C1CN1CCOCC1 (racemic)"
  Measured attribute: "IC50"
  Unit abbreviation: "nM"
  Reported value: 680
- Compound: "O=C(Cn1c(=O)cnc2cc(Cl)c(Cl)cc21)N1CCCC(c2ccccc2)C1CN1CCOCC1 (racemic)"
  Measured attribute: "IC50"
  Unit abbreviation: "nM"
  Reported value: 1000
- Compound: "Cc1cc2ncc(=O)n(CC(=O)N3CCCC(c4ccccc4)C3CN3CCCC3)c2cc1C (racemic)"
  Measured attribute: "IC50"
  Unit abbreviation: "nM"
  Reported value: 6800
- Compound: "N#CCN(CC(=O)N1CCCC(c2ccccc2)C1CN1CCCC1)c1ccc(Cl)c(Cl)c1 (racemic)"
  Measured attribute: "IC50"
  Unit abbreviation: "nM"
  Reported value: 1100
- Compound: "O=C(Cn1c(=O)cnc2cc(Cl)c(Cl)cc21)N1CCCC(c2ccccc2)C1CN1CCCC1 (racemic)"
  Measured attribute: "IC50"
  Unit abbreviation: "nM"
  Reported value: 1200
- Compound: "N#CCN(CC(=O)N1CCCC(c2ccccc2)C1CN1CCOCC1)c1ccc(Cl)c(Cl)c1 (racemic)"
  Measured attribute: "IC50"
  Unit abbreviation: "nM"
  Reported value: 490
- Compound: "COCCN(CC(=O)N1CCCC(c2ccccc2)C1CN1CCOCC1)c1ccc(Cl)c(Cl)c1 (racemic)"
  Measured attribute: "IC50"
  Unit abbreviation: "nM"
  Reported value: 480
- Compound: "O=C(Cn1c(=O)oc2ccc(Cl)cc21)N1CCCC(c2ccccc2)C1CN1CCOCC1 (racemic)"
  Measured attribute: "IC50"
  Unit abbreviation: "nM"
  Reported value: 1300
- Compound: "O=C1COc2cc(Cl)c(Cl)cc2N1CC(=O)N1CCCC(c2ccccc2)C1CN1CCOCC1 (racemic)"
  Measured attribute: "IC50"
  Unit abbreviation: "nM"
  Reported value: 730
- Compound: "Cc1cc2c(cc1C)N(CC(=O)N1CCCC(c3ccccc3)C1CN1CCCC1)C(=O)CO2 (racemic)"
  Measured attribute: "IC50"
  Unit abbreviation: "nM"
  Reported value: 3900
- Compound: "Cc1cc2ncc(=O)n(CC(=O)N3CCCC(c4ccccc4)C3CN3CCOCC3)c2cc1C (racemic)"
  Measured attribute: "IC50"
  Unit abbreviation: "nM"
  Reported value: 2700
